type: in vivo, human; conditions: both, human, plasma, oral, 50 mg, Cτ, Cohort 1, dolutegravir 50 mg once daily alone, Period 1 (n = 16); geometric mean (95% CI)
propertyLabel: concentration at 24 h
Hi, when you answer, please include the unit after the number. Thanks!

Quick one: concentration at 24 h for C[C@@H]1CCO[C@H]2Cn3cc(C(=O)NCc4ccc(F)cc4F)c(=O)c(O)c3C(=O)N12 ?
1310 ng/mL

###

assay type: in vivo, human; conditions: both, human, plasma, oral, 50 mg, Cmax, Cohort 2, dolutegravir 50 mg once daily alone, Period 1 (n = 16); geometric mean (95% CI)
propertyLabel: Cmax (ng/mL)
Use ng/mL as the unit, but write only the number.

Can you share its Cmax? I mean this molecule: C[C@@H]1CCO[C@H]2Cn3cc(C(=O)NCc4ccc(F)cc4F)c(=O)c(O)c3C(=O)N12
4990

###

assay type: in vivo, human; conditions: both, human, plasma, oral, t1/2, Cohort 1, dolutegravir 50 mg once daily + boceprevir 800 mg every 8 h, Period 2 (n = 13); geometric mean (95% CI)
propertyLabel: half-life (h)
Express your answer in h, writing the number without its unit.

Would you mind telling me what half-life value was observed for C[C@@H]1CCO[C@H]2Cn3cc(C(=O)NCc4ccc(F)cc4F)c(=O)c(O)c3C(=O)N12 [Dolutegravir] ?
13.8

###

format: in vivo, human; conditions: both, human, plasma, oral, AUC0–τ, Cohort 1, dolutegravir 50 mg once daily + boceprevir 800 mg every 8 h, Period 2 (n = 13); geometric mean (95% CI)
propertyLabel: AUC (ng·h/mL)
Write the answer as a number in ng·h/mL, unit excluded.

Returns the measured AUC for the input molecule. Input: C[C@@H]1CCO[C@H]2Cn3cc(C(=O)NCc4ccc(F)cc4F)c(=O)c(O)c3C(=O)N12 [Dolutegravir]
65300

###

type: in vivo, human; conditions: both, human, plasma, oral, 50 mg, AUC0–τ, Cohort 2, dolutegravir 50 mg once daily alone, Period 1 (n = 16); geometric mean (95% CI)
propertyLabel: AUC (ng·h/mL)
Write it as a number; the unit ng·h/mL goes unstated.

What AUC value was documented for this compound, C[C@@H]1CCO[C@H]2Cn3cc(C(=O)NCc4ccc(F)cc4F)c(=O)c(O)c3C(=O)N12 [Dolutegravir] ?
68900

###

format: in vivo, human; conditions: both, human, plasma, oral, Cτ, Cohort 2, dolutegravir 50 mg once daily + telaprevir 750 mg every 8 h, Period 2 (n = 15); geometric mean (95% CI)
propertyLabel: concentration at 24 h (ng/mL)
Provide only the numeric value, understood in ng/mL.

// returns reported concentration at 24 h for input C[C@@H]1CCO[C@H]2Cn3cc(C(=O)NCc4ccc(F)cc4F)c(=O)c(O)c3C(=O)N12 [Dolutegravir]
2090

###

format: in vivo, human; settings: both, human, plasma, oral, 50 mg, Cmax, Cohort 1, dolutegravir 50 mg once daily alone, Period 1 (n = 16); geometric mean (95% CI)
propertyLabel: Cmax

Dear colleague, I am looking for the recorded Cmax of the following compound: C[C@@H]1CCO[C@H]2Cn3cc(C(=O)NCc4ccc(F)cc4F)c(=O)c(O)c3C(=O)N12
4620 ng/mL

###

format: in vivo, human; details: both, human, plasma, oral, 50 mg, AUC0–τ, Cohort 1, dolutegravir 50 mg once daily alone, Period 1 (n = 16); geometric mean (95% CI)
propertyLabel: AUC (ng·h/mL)
The figure you give is taken to be in ng·h/mL; do not add the unit.

Bench note: what AUC did C[C@@H]1CCO[C@H]2Cn3cc(C(=O)NCc4ccc(F)cc4F)c(=O)c(O)c3C(=O)N12 show?
61500
